- System: MCF7
- assay-comment: Antiproliferative activity against human MCF7 cells
- Type: functional, cell-based
result-type: IC50 (µM)

O=C(CCCCCCC(=O)Nc1ccc(Nc2nc(-c3cn[nH]c3)c3cc[nH]c3n2)cc1)NO	15.6
C=CCCn1cc(-c2nc(Nc3ccc(NC(=O)CCCCCCC(=O)NO)cc3)nc3[nH]ccc23)cn1	4.5

[a] CCCn1cc(-c2nc(Nc3ccc(NC(=O)CCCCCCC(=O)NO)cc3)nc3[nH]ccc23)cn1
[b] COCCn1cc(-c2nc(Nc3ccc(NC(=O)CCCCCCC(=O)NO)cc3)nc3[nH]ccc23)cn1
Task item: Of a and b , which shows the smaller IC50 value? Answer with the label corresponding to your selection.
Reply: a

* * *

- system-name: Histone deacetylase 1 (Homo sapiens, UniProt Q13547)
- Sequence (Q13547 whole entry, the tested form may be a part): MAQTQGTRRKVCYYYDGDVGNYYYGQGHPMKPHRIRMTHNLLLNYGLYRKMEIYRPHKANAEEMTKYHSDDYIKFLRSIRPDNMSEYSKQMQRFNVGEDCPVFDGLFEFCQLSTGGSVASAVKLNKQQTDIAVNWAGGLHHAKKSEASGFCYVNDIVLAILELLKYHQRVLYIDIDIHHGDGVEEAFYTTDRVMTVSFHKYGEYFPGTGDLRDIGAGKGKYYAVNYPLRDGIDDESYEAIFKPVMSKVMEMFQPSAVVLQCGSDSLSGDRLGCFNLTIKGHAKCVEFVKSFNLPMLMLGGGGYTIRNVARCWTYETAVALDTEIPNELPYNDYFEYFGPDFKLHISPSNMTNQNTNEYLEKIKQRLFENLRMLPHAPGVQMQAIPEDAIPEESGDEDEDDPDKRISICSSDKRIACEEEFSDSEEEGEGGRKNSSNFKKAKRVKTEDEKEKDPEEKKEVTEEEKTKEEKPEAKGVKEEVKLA
- assay-comment: Inhibition of human HDAC1 using p53 (379 to 382 residues) derived fluorogenic peptide RHKKAc as substrate
pIC50: −log10 of the molar value.
result-type: pIC50

[A] C=CCCn1cc(-c2nc(Nc3ccc(NC(=O)CCCCCCC(=O)NO)cc3)nc3[nH]ccc23)cn1
[B] O=C(CCCCCCC(=O)Nc1ccc(Nc2nc(-c3cnn(CCCCOc4ccccc4)c3)c3cc[nH]c3n2)cc1)NO
Task item: Given the listed records, identify the one among A and B with higher pIC50. Answer with the label corresponding to your selection.
Reply: A

* * *

pIC50: −log10 of the molar value.
Entries below carry reported pIC50 on Protein deacetylase HDAC6 (Homo sapiens, UniProt Q9UBN7).
Sequence (Q9UBN7 whole entry): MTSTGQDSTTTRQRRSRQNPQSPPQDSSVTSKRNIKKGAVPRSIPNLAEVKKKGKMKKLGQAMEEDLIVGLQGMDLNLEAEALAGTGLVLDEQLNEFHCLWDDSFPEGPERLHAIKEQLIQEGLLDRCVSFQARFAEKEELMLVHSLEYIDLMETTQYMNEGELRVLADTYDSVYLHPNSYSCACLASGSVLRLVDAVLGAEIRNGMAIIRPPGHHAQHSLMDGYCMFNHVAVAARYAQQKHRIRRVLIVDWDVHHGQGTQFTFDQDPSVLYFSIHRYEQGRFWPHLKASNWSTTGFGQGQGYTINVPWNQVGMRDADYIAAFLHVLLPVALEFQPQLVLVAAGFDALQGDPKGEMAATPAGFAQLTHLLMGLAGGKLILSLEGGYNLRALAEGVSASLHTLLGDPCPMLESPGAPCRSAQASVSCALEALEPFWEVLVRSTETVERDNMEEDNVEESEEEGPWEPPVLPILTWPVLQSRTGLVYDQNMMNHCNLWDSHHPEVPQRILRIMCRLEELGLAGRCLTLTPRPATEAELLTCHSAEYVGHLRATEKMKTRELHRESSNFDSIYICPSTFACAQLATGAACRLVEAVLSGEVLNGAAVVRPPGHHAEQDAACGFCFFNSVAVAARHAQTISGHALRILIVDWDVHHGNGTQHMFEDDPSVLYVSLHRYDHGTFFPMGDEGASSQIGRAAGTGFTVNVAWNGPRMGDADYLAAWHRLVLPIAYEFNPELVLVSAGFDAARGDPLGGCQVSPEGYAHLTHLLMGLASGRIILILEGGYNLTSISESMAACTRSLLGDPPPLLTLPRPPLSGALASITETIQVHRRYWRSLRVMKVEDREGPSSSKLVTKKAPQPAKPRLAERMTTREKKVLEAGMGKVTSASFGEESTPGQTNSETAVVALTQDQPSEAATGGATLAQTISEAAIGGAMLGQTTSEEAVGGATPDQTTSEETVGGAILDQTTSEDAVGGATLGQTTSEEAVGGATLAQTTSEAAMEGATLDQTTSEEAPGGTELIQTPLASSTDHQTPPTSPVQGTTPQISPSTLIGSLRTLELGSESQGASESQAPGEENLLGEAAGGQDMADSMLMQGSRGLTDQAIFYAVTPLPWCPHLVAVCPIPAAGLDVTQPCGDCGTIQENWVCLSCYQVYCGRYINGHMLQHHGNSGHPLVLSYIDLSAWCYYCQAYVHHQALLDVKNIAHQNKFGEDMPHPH
result-type: pIC50

Check out these entries, answers already filled in.
CS(=O)(=O)CCn1cc(-c2nc(Nc3ccc(NC(=O)CCCCCCC(=O)NO)cc3)nc3[nH]ccc23)cn1	8.64
O=C(CCCCCCC(=O)Nc1ccc(Nc2nc(-c3cnn(CCCCCCOc4ccccc4)c3)c3cc[nH]c3n2)cc1)NO	7.80
O=C(CCCCCCC(=O)Nc1ccc(Nc2nc(-c3cnn(CCCCOc4ccccc4)c3)c3cc[nH]c3n2)cc1)NO	8.15
C=CCCn1cc(-c2nc(Nc3ccc(NC(=O)CCCCCCC(=O)NO)cc3)nc3[nH]ccc23)cn1	9.60

[I] O=C(CCCCCCC(=O)Nc1ccc(Nc2nc(-c3cnn(CCCCCOc4ccccc4)c3)c3cc[nH]c3n2)cc1)NO
[II] O=C(CCCCCCC(=O)Nc1ccc(Nc2nc(-c3cnn(CC4CCCC4)c3)c3cc[nH]c3n2)cc1)NO
Task item: Given the listed records, identify the one among I and II with higher pIC50. Answer with the label corresponding to your selection.
Reply: I
(I: 8.28, II: 8.02)

* * *

pIC50: −log10 of the molar value.
Entries below carry reported pIC50 on UniProt Q13547.
result-type: pIC50

O=C(CCCCCCC(=O)Nc1ccc(Nc2nc(-c3cnn(CC4CCCC4)c3)c3cc[nH]c3n2)cc1)NO	5.57

[I] O=C(CCCCCCC(=O)Nc1ccc(Nc2nc(-c3cn[nH]c3)c3cc[nH]c3n2)cc1)NO
[II] CS(=O)(=O)CCn1cc(-c2nc(Nc3ccc(NC(=O)CCCCCCC(=O)NO)cc3)nc3[nH]ccc23)cn1
[III] O=C(CCCCCCC(=O)Nc1ccc(Nc2nc(-c3cnn(CCCCCCOc4ccccc4)c3)c3cc[nH]c3n2)cc1)NO
Task item: Arrange these 3 molecules in increasing order of pIC50. Field: ranking. Enter the labels in the order requested.
Reply: III, II, I
(III: 5.70, II: 7.00, I: 8.70)

Recorded values, source ChEMBL document CHEMBL4229421.
